Target: MAPKAPK2 enzyme (HIS-MK2, Invitrogen PV4019) (Homo sapiens, UniProt P49137)
Sequence (P49137 whole entry): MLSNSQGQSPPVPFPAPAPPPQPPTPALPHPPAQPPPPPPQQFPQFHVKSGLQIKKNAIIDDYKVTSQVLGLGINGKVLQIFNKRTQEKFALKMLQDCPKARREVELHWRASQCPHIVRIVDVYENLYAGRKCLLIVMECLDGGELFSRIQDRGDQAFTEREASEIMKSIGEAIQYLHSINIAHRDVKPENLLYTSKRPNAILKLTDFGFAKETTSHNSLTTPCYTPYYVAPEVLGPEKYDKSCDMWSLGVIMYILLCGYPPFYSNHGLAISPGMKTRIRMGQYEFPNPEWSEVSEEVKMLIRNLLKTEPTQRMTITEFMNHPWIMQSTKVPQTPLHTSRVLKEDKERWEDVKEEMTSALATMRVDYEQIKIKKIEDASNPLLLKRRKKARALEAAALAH
Structures can show the parent of a compound that is named as a salt.
Would you kindly list pIC50 for each of these molecules?
Answers are plain numbers, as −log10 of the molar value.

CN(C)c1ccc(-c2cc3c(cn2)CCc2c4c(n(C)c2-3)CC2(CNC2)NC4=O)cn1 [Example 147, hydrochloride] = 7.05
Cn1c2c(c3c1-c1nc(-c4cccc(Br)c4)ncc1CC3)C(=O)NC1(CNC1)C2 [Example 286, hydrochloride] = 7.32
COc1ccc(-c2ncc3c(n2)-c2[nH]c4c(c2CC3)C(=O)NC2(CC2)C42CN(C)C2)cc1 [Example 215] = 7.74
O=C1NCC2(CC2)c2[nH]c3c(c21)CCc1cnc(-c2cccnc2)cc1-3 [Example 125] = 7.80
Nc1ccc(-c2cc3c(cn2)CCc2c-3[nH]c3c2C(=O)NC2(CCC2)C3)cn1 [Example 101] = 7.01

# input for lookup
Lookup result for COc1ccc(-c2cc3c(cn2)CCc2c4c(n(C)c2-3)CC2(CNC2)NC4=O)cc1 [Example 38, hydrochloride] ; measured pIC50: 7.70

* * *

Target: MAPKAPK2 enzyme (HIS-MK2, Invitrogen PV4019) (Homo sapiens, UniProt P49137)
Where a name gives a salt, the structure may show the parent alone.
quantity.kind: IC50

COc1ccc(-c2cc3c(cn2)CCc2c-3[nH]c3c2C(=O)NC2(CC2)C32CN(C)C2)cn1 [Example 255] = < 3 nM
Cn1c2c(c3c1-c1cc(-c4ccc(F)nc4)ncc1CC3)C(=O)NC1(CNC1)C2 [Example 134, hydrochloride] = 20 nM
O=C1NCC2(CNC2)c2[nH]c3c(c21)CCc1cnc(-c2ccc(F)nc2F)cc1-3 [Example 205, hydrochloride] = < 3 nM

For each of the compounds below, note its IC50.
1. CC(C)Oc1ccc(-c2cc3c(cn2)CCc2c-3[nH]c3c2C(=O)NCC32CNC2)cn1 [Example 186, hydrochloride]
2. CN1CC2(C1)c1[nH]c3c(c1C(=O)NC21CC1)CCc1cnc(-c2ccc(CCCN4CCOCC4)cc2)cc1-3 [Example 260]
3. O=C1NC2(CC2)C2(CNC2)c2[nH]c3c(c21)CCc1cnc(-c2cccc(F)c2)cc1-3 [Example 180, hydrochloride]

Reply text:
1: < 3 nM; 2: < 3 nM; 3: < 3 nM

* * *

pIC50 values recorded for MAPKAPK2 enzyme (HIS-MK2, Invitrogen PV4019) (Homo sapiens)
pIC50: −log10 of the molar value. Where a name gives a salt, the structure may show the parent alone.

CN1CC2(CNC(=O)c3c2[nH]c2c3CCc3cnc(-c4cccc(C(=O)NCc5ccccc5)c4)cc3-2)C1 [Example 262] = > 8.52
CN1CC2(C1)c1[nH]c3c(c1C(=O)NC21CC1)CCc1cnc(-c2ccc(F)nc2)cc1-3 [Example 223] = > 8.52

Lookup result for CC(C)Oc1ccc(-c2cc3c(cn2)CCc2c-3[nH]c3c2C(=O)NCC32CN(C)C2)cn1 [Example 185, hydrochloride] ; measured pIC50: > 8.52

* * *

System: TNF-α release from hPBMCs
Assay: Assay for inhibition of TNF-α release from hPBMCs (IFNγ/LPS stimulated)
Type: cell-based
Settings: Homo sapiens, IFNγ (10 ng/ml) and LPS (5 μg/ml), 3 h
Would you kindly list IC50 for each of these molecules?

In the examples that follow, each entry is paired with its recorded IC50.
O=C1NCC2(CC2)c2[nH]c3c(c21)CCc1cnc(-c2ccc(CN4CCOCC4)c(F)c2)cc1-3 [Example 301] = 256 nM
O=C1NC2(CC2)C2(CC2)c2[nH]c3c(c21)CCc1cnc(-c2cccc(F)c2)cc1-3 [Example 195] = 333 nM
COc1cncc(-c2cc3c(cn2)CCc2c-3[nH]c3c2C(=O)NC2(CCC2)C3)c1 [Example 99] = 311 nM
COc1ccc(-c2ncc3c(n2)-c2[nH]c4c(c2CC3)C(=O)NCC42CN(C)C2)cc1 [Example 207] = 130 nM
N#Cc1ccc(-c2cc3c(cn2)CCc2c-3[nH]c3c2C(=O)NCC32CC2)cn1 [Example 127] = 264 nM

# input for lookup
Lookup result for CN1CC2(CNC(=O)c3c2[nH]c2c3CCc3cnc(-c4ccccc4F)cc3-2)C1 [Example 172] ; measured IC50: 347 nM

Value source: patent US7838674B2
